# System: OVCAR-4 ovarian
# assay_notes: NCI tumour cell line growth inhibition, 48 h
endpoint: TGI

Some entries whose results are on file:
Cc1ccc(Oc2nc3ccccc3cc2-c2nnc(Cn3c(COc4ccccc4)nc4ccccc43)o2)cc1; 10.2 µM
OCCO[P+]1(OCCO)n2c3ccc2C(c2ccccc2)=C2C=CC(=N2)C(c2ccccc2)=c2ccc(n21)=C(c1ccccc1)C1=NC(=C3c2ccccc2)C=C1; 2.17 µM
CC(=O)NC1=C(C)C(=O)c2c(nc3n2CC[C@H]3OC(C)=O)C1=O; 3 µM
CC(=O)Nc1ccc(-c2nnc(SCC(=O)Nc3ccccc3C)o2)cc1; > 100 µM
Oc1ccc(CN(Cc2ccc(C(F)(F)F)cc2)Cc2ccc(O)c3ncccc23)c2cccnc12; > 100 µM

Need TGI for each of these compounds.
1. COc1cc2ncn(-c3cc(OCc4ccccc4S(C)(=O)=O)c(C#N)s3)c2cc1OC
2. COc1ccc(/C=C2\CN(C)Cc3c2[nH]c(=O)c(C#N)c3-c2ccc(OC)cc2)cc1
3. CCOC(=O)/C(=C\c1ccc(F)cc1)C(C)=O
4. COc1ccc2c(c1)CCCC1C3=NCCC3(C)CSC21 (stereo unspecified)
5. C/C(N=Nc1nc2ccccc2o1)=C1/C=CC=CN1O
6. COc1ccc(C(=O)CC(c2ccc(OC)c(OC)c2)c2c(O)c3ccccc3oc2=O)cc1OC (stereo unspecified)
7. O=C(/C=C\c1ccc2ccccc2n1)c1cc(Cl)ccc1O

1: > 25 µM; 2: > 100 µM; 3: > 100 µM; 4: > 100 µM; 5: > 100 µM; 6: > 100 µM; 7: 24.6 µM

Need TGI for each of these compounds.
1. COc1cc(-c2n/c(=C\c3c(O)[nH]c4ccccc34)cc3c2=Nc2ccccc2-3)cc(OC)c1OC
2. CC(=O)NC1=C(NCc2ccc(Cl)cc2)C(=O)c2ccccc2C1=O
3. N#C[C@H]1Nc2ccccc2[C@@H](O)C1O (stereo partly specified)

> 100 µM
13.4 µM
> 100 µM

Need TGI for each of these compounds.
1. COc1ccc2c(c1)[C@@]1(C)CCC3c4ccc(O)cc4CCC3C1C2 (stereo partly specified)
2. CC(=O)OC12CC(C)C3(O)C4C=C(C)C(=O)[C@@]4(O)CC(CO)=C[C@H]3C1C2(C)C (stereo partly specified)
3. COc1ccc2c(c1)-c1nn(CCN(C)C)c3ccc(C(=O)NCCCN(C)CCCNC(=O)c4ccc5c6c(nn5CCN(C)C)-c5cc(OC)ccc5Nc46)c(c13)N2
4. CC1(C)[C@@H]2C[C@H]1C(Cc1cccc(C[C@H]3c4cc(-c5ccccn5)ncc4[C@H]4C[C@@H]3C4(C)C)c1)c1cc(-c3ccccn3)ncc12 (stereo partly specified)
5. CC(=O)OCC1OC(c2nnc(C)o2)=CC(OC(C)=O)C1OC(C)=O (stereo unspecified)
6. O=C1C(N=Nc2ccc(-c3nc4ccccc4[nH]3)cc2)NC(=S)N1c1ccccc1 (stereo unspecified)
7. CC(C)(C)OC(=O)NCC(=O)N1CCCN(C(=O)CNC(=O)OC(C)(C)C)CC1

1: 28.4 µM; 2: > 1000 µM; 3: 0.827 µM; 4: > 100 µM; 5: > 100 µM; 6: > 100 µM; 7: > 100 µM

Need TGI for each of these compounds.
1. O=c1[nH]c2ccccc2c2oc(-c3ccccc3)nc12
2. O=C(O)c1ccc(Nc2nc3ccccc3nc2C(=O)O)cc1
3. COc1ccc(C2(C3c4cc(OC)c(OC)cc4CCN3C)SCCCS2)cc1O (stereo unspecified)
4. C/C=C\C(CC(=O)NCCC1CN(C(=O)c2ccccc2)c2ccccc21)CC(=O)OC (stereo unspecified)
5. COC(=O)c1cccc(C(=O)OC)c1
6. CC(C)CCC[C@@H](C)[C@H]1CCC2C3=CCC4C(=O)C=CC(=O)C4C3CC[C@@]21C (stereo partly specified)

> 100 µM
> 100 µM
> 100 µM
> 100 µM
> 100 µM
0.498 µM

====

For each entry below, report its TGI value.
# System: SK-MEL-2 melanoma
# assay_notes: NCI tumour cell line growth inhibition, 48 h

Some entries whose results are on file:
Cc1ccc(C[P+](c2ccccc2)(c2ccccc2)c2ccccc2)cc1; > 100 µM
NC1=NC(c2ccc(F)cc2)C2=C(N1)c1ccc3ccccc3c1OCC2 (stereo not drawn); > 100 µM
Nc1c(S(=O)(=O)O)cc(Nc2cccc(S(=O)(=O)/C=C/S(=O)(=O)O)c2)c2c1C(=O)c1ccccc1C2=O; > 100 µM
CCS(=O)(=O)c1c2cc(OC)ccc2nc2ccc(OC)cc12; > 100 µM
Cc1c(O)c(=O)ccn1CCO; > 100 µM

Need TGI for each of these molecules.
1. C=C1C(=O)O[C@H]2C[C@@H]1CCC1(C)OC1CC/C(C)=C/CC[C@H]2C (stereo partly drawn)
2. COc1ccc(C(=O)CC(c2ccc(OC)c(OC)c2)c2c(O)c3ccccc3oc2=O)cc1OC (stereo not drawn)
3. O=C(NN1C(=O)C=CC1=O)c1ccccc1Nc1ccccc1C(=O)NN1C(=O)C=CC1=O

> 100 µM
> 100 µM
> 100 µM

====

# Test system: HOP-62 NSCLC
# assay_notes: NCI tumour cell line growth inhibition, 48 h
For each entry below, report its TGI value.
Answers are plain numbers, in µM.

Need TGI for each of these compounds.
1. O=C1C=CC(=O)c2c1ncc1c2nc2sccn21
2. O=[N+]([O-])/C=C/c1ccc([N+](=O)[O-])cc1
3. COC(=O)n1c(CBr)c(Br)c2ccccc21

47.4
23.7
54

====

# Test system: U251 CNS
# assay_notes: NCI tumour cell line growth inhibition, 48 h
For each entry below, report its TGI value.

Need TGI for each of these molecules.
1. COc1cc2ncn(-c3cc(OCc4ccccc4S(C)(=O)=O)c(C#N)s3)c2cc1OC
2. COc1ccccc1NC(=O)C1=C(C)NC(C)=C(C(=O)Nc2ccccc2OC)C1c1cccc2c1OCO2
3. C#CCOC(=O)C(N)CCCN=C(N)N (centres undefined)
4. O=CN1CCN(C=S)CC1

["> 25 µM", "> 100 µM", "> 100 µM", "> 100 µM"]

====

For each entry below, report its TGI value.
# Test system: TK-10 renal
# assay_notes: NCI tumour cell line growth inhibition, 48 h

Some entries whose results are on file:
COc1cc2ncn(-c3cc(OCc4ccccc4S(C)(=O)=O)c(C#N)s3)c2cc1OC; > 25 µM
COc1nc2[nH]ccc2c(=O)n1C; > 100 µM

Moving on to another compound below.
Kindly state the measured TGI obtained for C/C=C\C(CC(=O)NCCC1CN(C(=O)c2ccccc2)c2ccccc21)CC(=O)OC (stereo not drawn) with TK-10 renal.
> 100 µM

====

For each entry below, report its TGI value.
# Test system: HT29 colon
# assay_notes: NCI tumour cell line growth inhibition, 48 h

Some entries whose results are on file:
O=C1C=CC(=O)c2c1ncc1c2nc2sccn21; > 100 µM
O=c1[nH]c2ccccc2c2oc(-c3ccccc3)nc12; > 100 µM
CC(=N\N=C\c1ccccn1)/C(C)=N/N=C(C)/C(C)=N/N=C(C)/C(C)=N/N=C/c1ccccn1; > 100 µM
COc1ccc(C2=C(c3cc(OC)c(OC)c(OC)c3)C(=O)OC2)cc1OC; > 24.3 µM

Moving on to another molecule below.
GET /values?readout=TGI&item= COc1cc2c(cc1Cl)n([O-])c(C#N)c(N1CCN(c3ccc([N+](=O)[O-])cc3)CC1)[n+]2=O
> 100 µM

====

For each entry below, report its TGI value.
# System: CAKI-1 renal
# assay_notes: NCI tumour cell line growth inhibition, 48 h

c1ccc(C2=C(c3ccccc3)P(c3ccccc3)C2)cc1 (stereo not drawn); > 100 µM
CN1CCC(n2[nH]c(-c3ccccc3)c(Cc3ccccc3)c2=O)CC1; > 100 µM

Moving on to another compound below.
GET /values?readout=TGI&item= N#C[C@H]1Nc2ccccc2[C@@H](O)C1O (stereo partly drawn)
> 100 µM

====

# System: SF-268 CNS
# assay_notes: NCI tumour cell line growth inhibition, 48 h
For each entry below, report its TGI value.

Some entries whose results are on file:
CCC(C)C1(O)OC2CC3(C)OC(=CC3=O)/C(C)=C\C3OC(=O)C1(C)C32 (configuration not stated); > 100 µM
CCOC(=O)C1=C(c2ccccc2)N(c2ccc(OC)cc2)[C@]2(C#N)C(O)=C(Cl)C(Cl)=C(O)[C@]12C#N; 52.2 µM
COc1ccc2c(c1)C(=O)c1c-2n(CCCN2CCOCC2)c(=O)c2cc([N+](=O)[O-])ccc12; > 100 µM
CC(=O)NC1=C(NCc2ccc(Cl)cc2)C(=O)c2ccccc2C1=O; > 50 µM
O=c1[nH]c2ccccc2c2oc(-c3ccccc3)nc12; 71.3 µM

Need TGI for each of these compounds.
1. Cc1ccc(F)cc1NC(=O)c1cc(Cl)ccc1Nc1ccccc1
2. COc1cc2c(c(OC)c1OC)-c1ccc(SC)c(=O)cc1C(CC(=O)Oc1cccc(C#N)c1)C2 (configuration not stated)
3. COC(=O)c1cccc(C(=O)OC)c1
4. NC(N)=N/N=C/c1c(-c2ccc(Cl)c([N+](=O)[O-])c2)nc2ccccn12
5. Cc1ccccc1C(C(=O)NC1CCCCC1)N(C(=O)Cn1ccnc1C)c1cccc(F)c1 (configuration not stated)

> 100 µM
> 100 µM
> 100 µM
2.93 µM
> 100 µM

Need TGI for each of these compounds.
1. CN1CCCCC(C(O)(c2ccccc2)c2ccccc2)C1=O (configuration not stated)
2. Cc1cc(N=C2C=C(Nc3cc(C)on3)C(=O)c3ccccc32)no1

["> 100 µM", "> 100 µM"]
